Molecular target: BTK T474I (Homo sapiens (Human), UniProt Q06187, T474I)
Sequence (Q06187 whole entry T474I): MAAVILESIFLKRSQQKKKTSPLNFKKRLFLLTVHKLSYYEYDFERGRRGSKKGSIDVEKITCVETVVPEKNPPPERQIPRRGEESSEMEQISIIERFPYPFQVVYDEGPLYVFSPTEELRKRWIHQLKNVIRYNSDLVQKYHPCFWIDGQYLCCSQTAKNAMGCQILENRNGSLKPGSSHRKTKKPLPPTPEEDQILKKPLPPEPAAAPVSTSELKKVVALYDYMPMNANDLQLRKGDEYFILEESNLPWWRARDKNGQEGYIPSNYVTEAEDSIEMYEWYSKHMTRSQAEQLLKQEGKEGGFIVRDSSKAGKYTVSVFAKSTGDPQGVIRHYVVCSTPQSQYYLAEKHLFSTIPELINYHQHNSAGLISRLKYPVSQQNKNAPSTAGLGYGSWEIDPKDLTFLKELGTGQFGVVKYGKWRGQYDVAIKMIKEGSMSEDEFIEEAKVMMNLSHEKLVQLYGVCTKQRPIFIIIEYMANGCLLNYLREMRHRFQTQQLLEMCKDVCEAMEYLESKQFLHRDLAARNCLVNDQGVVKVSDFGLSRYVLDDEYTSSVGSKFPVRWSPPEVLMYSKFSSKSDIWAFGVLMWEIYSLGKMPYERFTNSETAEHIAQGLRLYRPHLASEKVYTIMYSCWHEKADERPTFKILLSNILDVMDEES
Experiment: Binding kinetics measurements (Surface Plasmon Resonance) on BTK T474I
Details: target residence time, SPR
Protocol: Binding kinetics measurements on wt-BTK, BTK […], BTK […], BTK […] and BTK […] […] The kinetic constants of the compounds were determined with single cycle kinetics with five consecutive injections with an increasing compound concentration with ranges of 3.16-316 nM. […] The SPR sensorgrams were analyzed with Biacore Evaluation Software by using a method of double referencing. […] Target residence for an induced fit model was calculated as described (Tummino and Copeland, 2008).
quantity-name: Tau (h) BTK T474I (Act)
Numbers only; they are read as h.

- substance-smiles: "Nc1ncc2c3c1c(-c1ccc(C(=O)Nc4cc(C(F)(F)F)ccn4)cc1)nn3[C@@H]1CCC[C@H](C1)NC(=O)CCCC[C@H](O)/C=C/2"
  quantity-name: "Tau (h) BTK T474I (Act)"
  value-unit: "h"
  test-result: 1.93
- substance-smiles: "COc1ccc(F)cc1C(=O)NCc1ccc(-c2nc3n4c(cnc(N)c24)/C=C/CCOCCC(=O)N[C@@H]2CC[C@@H]3C2)cc1"
  quantity-name: "Tau (h) BTK T474I (Act)"
  value-unit: "h"
  test-result: 0.93
- substance-smiles: "N#Cc1ccnc(NC(=O)c2ccc(-c3nc4n5c(cnc(N)c35)/C=C/COCCC(=O)N[C@@H]3CC[C@@H]4C3)cc2)c1"
  quantity-name: "Tau (h) BTK T474I (Act)"
  value-unit: "h"
  test-result: 0.54

// query I have this molecule here, Nc1ncc2n3c(nc(-c4ccc(C(=O)Nc5cc(C(F)(F)F)ccn5)cc4)c13)[C@@H]1CCC[C@H](C1)NC(=O)CCCCC/C=C/2 , and I need its recorded Tau (h) BTK T474I (Act).
// result 2.37
